# tgt: human Cav3.2 (Homo sapiens)
# Sequence (O95180 whole entry): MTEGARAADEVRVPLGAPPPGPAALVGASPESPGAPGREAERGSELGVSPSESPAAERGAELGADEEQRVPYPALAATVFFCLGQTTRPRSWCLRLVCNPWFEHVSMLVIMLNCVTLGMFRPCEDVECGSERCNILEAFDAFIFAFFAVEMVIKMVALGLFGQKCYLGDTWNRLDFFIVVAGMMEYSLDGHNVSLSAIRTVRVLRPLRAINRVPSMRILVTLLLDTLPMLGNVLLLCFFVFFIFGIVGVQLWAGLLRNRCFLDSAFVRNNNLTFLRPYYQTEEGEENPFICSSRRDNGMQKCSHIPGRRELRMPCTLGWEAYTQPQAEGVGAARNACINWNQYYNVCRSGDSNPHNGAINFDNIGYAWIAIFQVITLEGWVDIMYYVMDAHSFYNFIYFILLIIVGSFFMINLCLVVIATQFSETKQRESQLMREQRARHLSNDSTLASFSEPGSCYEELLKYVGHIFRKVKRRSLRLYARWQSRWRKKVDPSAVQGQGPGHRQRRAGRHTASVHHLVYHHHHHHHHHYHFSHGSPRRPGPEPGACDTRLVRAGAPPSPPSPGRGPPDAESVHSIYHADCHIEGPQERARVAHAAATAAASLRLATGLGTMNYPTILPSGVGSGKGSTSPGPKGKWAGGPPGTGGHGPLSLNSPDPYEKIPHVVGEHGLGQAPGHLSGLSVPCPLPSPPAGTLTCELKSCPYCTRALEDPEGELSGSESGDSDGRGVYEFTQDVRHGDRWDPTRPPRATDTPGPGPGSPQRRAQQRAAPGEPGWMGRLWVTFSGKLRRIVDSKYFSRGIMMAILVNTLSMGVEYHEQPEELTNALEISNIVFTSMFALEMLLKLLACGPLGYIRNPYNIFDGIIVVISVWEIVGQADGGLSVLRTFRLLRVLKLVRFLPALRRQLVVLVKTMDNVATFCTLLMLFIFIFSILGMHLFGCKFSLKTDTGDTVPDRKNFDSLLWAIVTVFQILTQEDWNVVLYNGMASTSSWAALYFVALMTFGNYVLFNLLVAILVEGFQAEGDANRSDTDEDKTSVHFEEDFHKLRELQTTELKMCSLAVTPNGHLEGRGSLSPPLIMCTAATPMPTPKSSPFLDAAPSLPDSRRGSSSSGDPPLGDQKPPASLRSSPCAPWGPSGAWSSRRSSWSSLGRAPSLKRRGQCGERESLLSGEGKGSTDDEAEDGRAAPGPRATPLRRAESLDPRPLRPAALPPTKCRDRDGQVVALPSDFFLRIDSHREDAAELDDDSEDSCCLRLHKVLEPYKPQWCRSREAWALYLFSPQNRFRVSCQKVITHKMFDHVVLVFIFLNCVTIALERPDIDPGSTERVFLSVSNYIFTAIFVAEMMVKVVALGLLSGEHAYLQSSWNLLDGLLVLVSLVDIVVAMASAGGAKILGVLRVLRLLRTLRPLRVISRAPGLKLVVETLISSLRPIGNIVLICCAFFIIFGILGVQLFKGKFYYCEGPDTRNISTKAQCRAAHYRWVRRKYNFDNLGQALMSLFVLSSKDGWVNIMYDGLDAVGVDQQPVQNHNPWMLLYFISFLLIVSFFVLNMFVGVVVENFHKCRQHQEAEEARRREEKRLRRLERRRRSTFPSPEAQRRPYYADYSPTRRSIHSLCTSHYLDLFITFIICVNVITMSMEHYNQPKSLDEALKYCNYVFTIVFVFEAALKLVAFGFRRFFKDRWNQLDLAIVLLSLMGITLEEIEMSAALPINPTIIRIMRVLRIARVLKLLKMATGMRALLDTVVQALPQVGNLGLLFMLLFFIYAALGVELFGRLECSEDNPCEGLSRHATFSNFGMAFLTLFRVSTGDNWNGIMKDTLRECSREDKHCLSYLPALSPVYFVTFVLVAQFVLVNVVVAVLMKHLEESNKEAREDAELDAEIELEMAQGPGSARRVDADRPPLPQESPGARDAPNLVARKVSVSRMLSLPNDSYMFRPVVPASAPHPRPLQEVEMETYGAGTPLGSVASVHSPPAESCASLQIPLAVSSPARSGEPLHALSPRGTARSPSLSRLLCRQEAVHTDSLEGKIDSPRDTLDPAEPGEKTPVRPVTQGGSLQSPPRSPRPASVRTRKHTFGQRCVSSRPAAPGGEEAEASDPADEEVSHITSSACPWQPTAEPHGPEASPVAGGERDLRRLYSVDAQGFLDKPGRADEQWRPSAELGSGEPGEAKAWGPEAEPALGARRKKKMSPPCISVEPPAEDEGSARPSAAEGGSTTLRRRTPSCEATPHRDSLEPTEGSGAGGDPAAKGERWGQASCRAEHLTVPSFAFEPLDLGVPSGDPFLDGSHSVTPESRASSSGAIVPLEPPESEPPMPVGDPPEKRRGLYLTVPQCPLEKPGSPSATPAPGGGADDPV
# protocol-text: IonWorks Screen for hCaV3.2
# condition-set: IonWorks HT, HEK cells expressing human Cav3.2, 10 minutes incubation, pulse 10; read-out: IW hCav3.2 IC50
endpoint: pIC50
Reminder that pIC50 is minus the log10 of a molar concentration.

Here's what some known entries look like.
>  <compound>
CC(C)N1C(=O)C2(CCN(C(=O)Nc3cc(Cl)cc(Cl)c3)CC2)C1c1ccc(Cl)cc1 (stereo not drawn)

>  <tgt>
human Cav3.2 (Homo sapiens)

>  <pIC50>
6.67

$$$$
>  <compound>
O=C(Nc1ccc(F)c(F)c1)N1CCC2(CC1)C(=O)N(c1ccccc1)C2c1ccc(Cl)cc1 (stereo not drawn)

>  <tgt>
human Cav3.2 (Homo sapiens)

>  <pIC50>
6.44

$$$$

Now consider the entry below.
Item: O=C(Nc1cc(F)cc(F)c1)N1CCC2(CC1)C(=O)N(c1ccc(F)cc1)C2c1ccc(Cl)cc1 (stereo not drawn) | pIC50: 6.30

---

# tgt: human NPC1L1 (Homo sapiens)
# Sequence (Q9UHC9 22-1359): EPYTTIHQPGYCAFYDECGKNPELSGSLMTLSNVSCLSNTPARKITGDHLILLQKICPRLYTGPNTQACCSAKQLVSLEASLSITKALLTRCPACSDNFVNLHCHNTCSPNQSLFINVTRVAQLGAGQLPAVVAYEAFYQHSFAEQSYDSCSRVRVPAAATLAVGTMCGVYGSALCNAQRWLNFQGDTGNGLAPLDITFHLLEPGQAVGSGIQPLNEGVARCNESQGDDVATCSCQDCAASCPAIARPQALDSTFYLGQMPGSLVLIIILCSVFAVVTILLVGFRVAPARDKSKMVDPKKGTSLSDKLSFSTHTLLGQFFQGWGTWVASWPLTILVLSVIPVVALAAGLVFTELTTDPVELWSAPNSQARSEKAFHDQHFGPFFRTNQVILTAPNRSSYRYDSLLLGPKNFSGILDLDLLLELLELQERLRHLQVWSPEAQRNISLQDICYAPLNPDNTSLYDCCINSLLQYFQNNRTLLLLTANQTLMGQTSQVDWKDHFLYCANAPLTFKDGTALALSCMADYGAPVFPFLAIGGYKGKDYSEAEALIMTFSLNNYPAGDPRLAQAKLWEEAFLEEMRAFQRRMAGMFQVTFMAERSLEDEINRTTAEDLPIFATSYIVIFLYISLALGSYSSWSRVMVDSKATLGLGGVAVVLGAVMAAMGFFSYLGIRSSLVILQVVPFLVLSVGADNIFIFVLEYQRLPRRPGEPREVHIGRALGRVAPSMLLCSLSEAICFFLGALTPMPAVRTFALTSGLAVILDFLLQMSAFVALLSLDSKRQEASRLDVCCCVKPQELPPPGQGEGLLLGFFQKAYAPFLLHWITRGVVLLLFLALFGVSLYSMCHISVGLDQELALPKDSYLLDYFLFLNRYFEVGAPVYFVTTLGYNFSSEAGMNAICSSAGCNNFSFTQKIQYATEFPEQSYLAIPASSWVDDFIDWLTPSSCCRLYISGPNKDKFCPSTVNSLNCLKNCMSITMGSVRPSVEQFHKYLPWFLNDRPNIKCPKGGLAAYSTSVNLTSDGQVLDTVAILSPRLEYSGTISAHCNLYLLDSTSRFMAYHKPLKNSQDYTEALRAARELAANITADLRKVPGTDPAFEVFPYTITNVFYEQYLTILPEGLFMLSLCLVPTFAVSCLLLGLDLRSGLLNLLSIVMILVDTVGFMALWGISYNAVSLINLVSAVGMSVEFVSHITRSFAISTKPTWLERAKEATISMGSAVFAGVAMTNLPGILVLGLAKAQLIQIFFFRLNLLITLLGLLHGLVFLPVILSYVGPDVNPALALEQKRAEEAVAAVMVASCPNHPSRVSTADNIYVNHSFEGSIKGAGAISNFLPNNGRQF
endpoint: pKi
Reminder that pKi is minus the log10 of a molar concentration.

>  <molecule>
O=C(Nc1ccccc1C(F)(F)F)N1CCC2(CC1)C(=O)N(c1ccccc1)C2c1ccccc1 (stereo not drawn)

>  <pKi>
5.09

$$$$
>  <molecule>
Cc1cccc(Cl)c1NC(=O)N1CCC2(CC1)C(=O)N(c1ccccc1)C2c1ccccc1 (stereo not drawn) [drawing 443]

>  <pKi>
6.00

$$$$

Now consider the entry below.
Item: O=C(Nc1cccc(Cl)c1Cl)N1CCC2(CC1)C(=O)N(c1ccccc1)C2c1ccccc1 (stereo not drawn) | pKi: 5.18
